Each recorded value in this set is attributed to patent US5534533A.

- assaySystem: intracellular PLA2 (cytosolic PLA2, cPLA2) (Homo sapiens, UniProt P47712)
- Sequence (P47712 1-749): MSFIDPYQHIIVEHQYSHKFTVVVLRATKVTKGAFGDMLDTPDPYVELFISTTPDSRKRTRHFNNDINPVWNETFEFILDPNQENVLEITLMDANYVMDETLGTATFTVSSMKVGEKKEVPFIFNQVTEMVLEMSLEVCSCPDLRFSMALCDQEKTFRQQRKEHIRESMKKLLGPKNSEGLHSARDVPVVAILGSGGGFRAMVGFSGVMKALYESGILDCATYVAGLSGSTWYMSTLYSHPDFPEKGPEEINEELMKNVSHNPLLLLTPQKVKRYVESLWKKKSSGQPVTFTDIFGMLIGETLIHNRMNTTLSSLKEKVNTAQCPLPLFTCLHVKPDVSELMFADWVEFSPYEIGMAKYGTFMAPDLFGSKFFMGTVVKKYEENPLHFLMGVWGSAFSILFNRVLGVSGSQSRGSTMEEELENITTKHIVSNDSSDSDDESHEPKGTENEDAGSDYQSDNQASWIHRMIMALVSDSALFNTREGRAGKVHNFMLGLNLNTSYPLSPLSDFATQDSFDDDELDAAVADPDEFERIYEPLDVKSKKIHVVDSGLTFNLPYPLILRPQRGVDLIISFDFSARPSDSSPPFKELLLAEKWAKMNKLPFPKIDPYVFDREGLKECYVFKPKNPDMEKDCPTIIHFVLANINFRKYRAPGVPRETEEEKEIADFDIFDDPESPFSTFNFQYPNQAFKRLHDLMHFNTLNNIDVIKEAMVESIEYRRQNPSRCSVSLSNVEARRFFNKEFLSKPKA
- methodNotes: Intracellular PLA2 (cPLA2) inhibitory activity (14C-arachidonyl phosphatidylcholine substrate)
- appliedConditions: 2 μM radiolabelled phosphatidylcholine, 1 μM dioleoylglycerol, 1 mM CaCl2, pH 7.4; read-out: c-PLA2 Inhibition IC50
pIC50: −log10 of the molar value.
valueType: pIC50

P: COc1c(C)c(OC(=O)c2c(C)c(C)c(OCCCOc3ccc(C(F)(F)F)cc3)c(C)c2OC)c(C)c(C)c1C(=O)O
Q: COc1c(C)c(OC(=O)c2c(C)c(C)c(OCCCN(C(=O)c3ccccc3)C(=O)c3ccccc3)c(C)c2OC)c(C)c(C)c1C(=O)O
Q: Smaller pIC50 value? Options are P and Q Give the chosen item's label as your response.
Ans: P
(P: 4.70, Q: 5.02)

I: COc1c(C)c(OC(=O)c2c(C)c(C)c(OCCCN3C(=O)c4ccccc4S3(=O)=O)c(C)c2OC)c(C)c(C)c1C(=O)O
II: COc1cc(OC)cc(OCCCOc2c(C)c(C)c(C(=O)Oc3c(C)c(C)c(C(=O)O)c(OC)c3C)c(OC)c2C)c1
III: COc1c(C)c(OC(=O)c2c(C)c(C)c(OCCCOc3ccc(Cl)cc3Cl)c(C)c2OC)c(C)c(C)c1C(=O)O
Q: Arrange the 3 molecules by rising pIC50, starting with the smallest. Thanks in advance for listing the labels in the requested order.
Ans: I, II, III
(I: 4.68, II: 5.23, III: 5.55)

====

- assaySystem: intracellular PLA2 (cytosolic PLA2, cPLA2) (Homo sapiens)
- methodNotes: Intracellular PLA2 (cPLA2) inhibitory activity (14C-arachidonyl phosphatidylcholine substrate)
- appliedConditions: 2 μM radiolabelled phosphatidylcholine, 1 μM dioleoylglycerol, 1 mM CaCl2, pH 7.4; read-out: c-PLA2 Inhibition IC50
pIC50: −log10 of the molar value.
valueType: pIC50

// solved cases for pIC50 follow
{"columns": ["smilesNotation", "pIC50"],
 "data": [
  ["COc1c(C)c(OC(=O)c2c(C)c(C)c(OCCCOc3ccc4c(c3)OCO4)c(C)c2OC)c(C)c(C)c1C(=O)O", 5.00],
  ["COc1cc(OCCCOc2c(C)c(C)c(C(=O)Oc3c(C)c(C)c(C(=O)O)c(OC)c3C)c(OC)c2C)c(C(c2ccccc2)c2ccccc2)cc1OC", 5.85]
]}

1: COc1c(C)c(OC(=O)c2c(C)c(C)c(OCCCOc3ccc(C(=O)O)cc3)c(C)c2OC)c(C)c(C)c1C(=O)O
2: COc1c(C(C)(C)C)cc(SCCCOc2c(C)c(C)c(C(=O)O)c(OC)c2C)cc1C(C)(C)C
Q: Which numeric pIC50 is bigger, that of 1 or that of 2 ? Indicate which entry you chose by stating its label.
Ans: 2
